Hey, just so you know, these numbers are from PubChem BioAssay (NCATS).

Experiment: High-throughput drug toxicity screening in the BPDCN cell line Gen2.2 (AID 1224824);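 note: cells exposed to compounds for 48 h before reading; 100% = DMSO and 0% = bortezomib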
Details: Gen2.2 BPDCN cells; at 45.8 µM (top of the series) unless noted
Rule: cell viability, % of control (lower = more cytotoxic) below 80% gives Met. Equal to or above 80% gives Not met.

- compound: "CN(C)CCOC(c1ccccc1)c1ccccc1"
  class_name: "Not met"
- compound: "Cn1c(=O)c2[nH]cnc2n(C)c1=O"
  class_name: "Not met"
- compound: "NC12CC3CC(CC(C3)C1)C2"
  class_name: "Met"
- compound: "COc1cc2nc(N3CCN(C(=O)C4COc5ccccc5O4)CC3)nc(N)c2cc1OC (configuration not stated)"
  class_name: "Met"
- compound: "Cn1ccc2cc3c(cc21)CCN3C(=O)Nc1cccnc1"
  class_name: "Not met"

(Q) Please determine if CN1C2CCC1CC(OC(=O)C(CO)c1ccccc1)C2 (configuration not stated) is below 80% in terms of cell viability, % of control (lower = more cytotoxic).
(A) Not met

(Q) Please determine if CN1CCN2c3ccccc3Cc3ccccc3C2C1 (configuration not stated) is below 80% in terms of cell viability, % of control (lower = more cytotoxic).
(A) Not met

====

Tested on: Zika virus NS2B-NS3 protease (unlinked)
Test: Optimization of GU AMC qHTS for Zika virus inhibitors: Unlinked NS2B-NS3 protease assay (AID 1347151); note: nearly all actives have a fitted effect of over 80% in size
Conditions: recombinant ZIKV NS2B-NS3 protease, fluorogenic AMC substrate; series mostly up to 52.5 µM
Records with an inconclusive call do not appear. The source made the active and inactive calls. The call rests on the fitted dose curve; in most records, active means well fitted inhibition curve with a large enough effect; inconclusive means small, poorly fitted or top-dose-only effect; inactive means no such curve, though single readings can be large or run the other way.
Hello, when you answer, please use one of the following outcomes: 1 (active), 0 (inactive)

- compound: "CN(C)c1nc(N(C)C)nc(N(C)C)n1"
  class_name: 0
- compound: "CNCCCC12CCC(c3ccccc31)c1ccccc12"
  class_name: 0
- compound: "COC(=O)Nc1nc2ccc(C(=O)c3cccs3)cc2[nH]1"
  class_name: 0
- compound: "CCN1CCCC1CNC(=O)c1cc(S(=O)(=O)CC)c(N)cc1OC (stereo not given)"
  class_name: 0
- compound: "CN1CCC(=C2c3ccccc3C=Cc3ccccc32)CC1"
  class_name: 0
- compound: "CC[N+](CC)(CC)CCOc1cccc(OCC[N+](CC)(CC)CC)c1OCC[N+](CC)(CC)CC"
  class_name: 0
- compound: "CC#C[C@]1(O)CC[C@H]2[C@@H]3CCC4=CC(=O)CCC4=C3[C@@H](c3ccc(N(C)C)cc3)C[C@@]21C"
  class_name: 0
- compound: "COc1ccc(CCN(C)CCCC(C#N)(c2ccc(OC)c(OC)c2)C(C)C)cc1OC (stereo not given)"
  class_name: 0

(Q) Outcome? `CN(CCOc1ccc(NS(C)(=O)=O)cc1)CCc1ccc(NS(C)(=O)=O)cc1`
(A) 0

(Q) Outcome? `CC(=O)OCC(CCn1cnc2cnc(N)nc21)COC(C)=O`
(A) 1

====

System: CP217
Experiment: qHTS profiling for inhibitors of Plasmodium falciparum proliferation (AID 504749); note: nearly all actives have a fitted effect of over 60% in size
Details: P. falciparum in erythrocytes, SYBR Green DNA, 72 h; series mostly up to 28.7 µM
Inconclusive results are not listed. The source made the active and inactive calls. Calls follow the shape of the dose curve; as a rule, active = well fitted inhibition curve with a large enough effect; inconclusive = small, poorly fitted or top-dose-only effect; inactive = flat fitted curve, though single readings scatter.
Hello, when you answer, please use one of the following outcomes: 1.0 = active, 0.0 = inactive

Consider the following illustrative entries.
- compound: "CCOC(=O)c1ncn2c1CN(C)C(=O)c1cc(F)ccc1-2"
  class_name: 0.0
- compound: "CC#C[C@]1(O)CC[C@H]2[C@@H]3CCC4=CC(=O)CCC4=C3[C@@H](c3ccc(N(C)C)cc3)C[C@@]21C"
  class_name: 1.0
- compound: "NC(=O)OCC(COC(N)=O)c1ccccc1"
  class_name: 0.0
- compound: "CCOC(=O)Nc1ccc(NCc2ccc(F)cc2)nc1N"
  class_name: 1.0
- compound: "CCC1(c2ccccc2)C(=O)NCNC1=O"
  class_name: 0.0
- compound: "COC(=O)Nc1nc2ccc(C(=O)c3cccs3)cc2[nH]1"
  class_name: 0.0
- compound: "Nc1nc2c(ncn2COC(CO)CO)c(=O)[nH]1"
  class_name: 0.0
- compound: "CNCCCC12CCC(c3ccccc31)c1ccccc12"
  class_name: 0.0

Turning to the following compound.
(Q) Outcome? `COc1nc(C)nc(Cl)c1NC1=NCCN1`
(A) 0.0
